# ASSAYED_TARGET: UniProt Q03405
# MEASUREMENT_CONDITIONS: 5000.0
Square brackets hold non-standard residues; d marks the D form. Peptide text beside a SMILES is read from it.
Listed here: items and their measured % Inhibition 5 uM.
Write the number in % without appending the unit.

// solved cases for % Inhibition 5 uM follow
COMPOUND	UNIT_OF_MEASURE	% Inhibition 5 uM
CC(C)C[C@H](NC(=O)[C@H](CCCCN)NC(=O)[C@H](Cc1ccccc1)NC(=O)[C@H](Cc1ccccc1)NC(=O)[C@H](CCC(=O)O)NC(=O)[C@H](C)N)C(=O)NCC(=O)N1CCC[C@H]1C(=O)N[C@@H](CC(N)=O)C(=O)NCC(=O)N[C@@H](Cc1ccc(O)cc1)C(=O)N[C@H](C(=O)N[C@H](Cc1ccc(O)cc1)C(=O)N[C@@H](CC(C)C)C(=O)N[C@@H](Cc1c[nH]cn1)C(=O)N[C@@H](CO)C(=O)N[C@@H](C)C(N)=O)C(C)C [Analog 92] (H-AEFFKLGPNGYV[dY]LHSA-NH2)	%	3.3
CC(C)C[C@H](NC(=O)[C@H](CCCCN)NC(=O)[C@H](Cc1ccccc1)NC(=O)[C@H](Cc1ccccc1)NC(=O)[C@H](CCC(=O)O)NC(=O)[C@@H](C)N)C(=O)NCC(=O)N1CCC[C@H]1C(=O)N[C@@H](CC(N)=O)C(=O)NCC(=O)N[C@@H](Cc1ccc(O)cc1)C(=O)N[C@H](C(=O)N[C@@H](Cc1ccc(O)cc1)C(=O)N[C@@H](CC(C)C)C(=O)N[C@@H](Cc1c[nH]cn1)C(=O)N[C@@H](CO)C(=O)N[C@@H](C)C(N)=O)C(C)C [Analog 82] (H-[dA]EFFKLGPNGYVYLHSA-NH2)	%	41

I have this compound here, CC(C)C[C@H](NC(=O)[C@H](CCCCN)NC(=O)[C@H](Cc1ccccc1)NC(=O)[C@H](Cc1ccccc1)NC(=O)[C@H](CCC(=O)O)NC(=O)[C@H](C)N)C(=O)NCC(=O)N1CCC[C@H]1C(=O)N[C@@H](CC(N)=O)C(=O)NCC(=O)N[C@@H](Cc1ccc(O)cc1)C(=O)N[C@H](C(=O)N[C@@H](Cc1ccc(O)cc1)C(=O)N[C@@H](CC(C)C)C(=O)N[C@H](Cc1c[nH]cn1)C(=O)N[C@@H](CO)C(=O)N[C@@H](C)C(N)=O)C(C)C [Analog 94] (H-AEFFKLGPNGYVYL[dH]SA-NH2) , and I need its recorded % Inhibition 5 uM. 41

I have this compound here, CC(C)C[C@H](NC(=O)[C@H](CCCCN)NC(=O)[C@H](Cc1ccccc1)NC(=O)[C@H](Cc1ccccc1)NC(=O)[C@H](CCC(=O)O)NC(=O)[C@H](C)N)C(=O)NCC(=O)N1CCC[C@@H]1C(=O)N[C@@H](CC(N)=O)C(=O)NCC(=O)N[C@@H](Cc1ccc(O)cc1)C(=O)N[C@H](C(=O)N[C@@H](Cc1ccc(O)cc1)C(=O)N[C@@H](CC(C)C)C(=O)N[C@@H](Cc1c[nH]cn1)C(=O)N[C@@H](CO)C(=O)N[C@@H](C)C(N)=O)C(C)C [Analog 88] (H-AEFFKLG[dP]NGYVYLHSA-NH2) , and I need its recorded % Inhibition 5 uM. 76

---

# ASSAYED_TARGET: soluble uPAR (Homo sapiens, UniProt Q03405)
# Sequence (Q03405 23-305 limits assumed): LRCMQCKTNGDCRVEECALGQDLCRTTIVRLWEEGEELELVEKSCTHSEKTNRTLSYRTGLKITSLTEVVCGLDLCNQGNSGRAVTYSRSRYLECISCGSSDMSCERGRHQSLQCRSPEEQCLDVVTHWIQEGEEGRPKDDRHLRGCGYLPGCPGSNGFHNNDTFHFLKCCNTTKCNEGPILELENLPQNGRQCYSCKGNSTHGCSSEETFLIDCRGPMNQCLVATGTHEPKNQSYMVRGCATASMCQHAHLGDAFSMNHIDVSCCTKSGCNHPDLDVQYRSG
# MEASUREMENT_CONDITIONS: 5000.0
Square brackets hold non-standard residues; d marks the D form. Peptide text beside a SMILES is read from it.
Listed here: items and their measured % Inhibition 5 uM.
Write the number in % without appending the unit.

COMPOUND	VALUE_KIND	UNIT_OF_MEASURE	RECORDED_MEASUREMENT
CC(C)C[C@H](NC(=O)[C@H](CCCCN)NC(=O)[C@H](Cc1ccccc1)NC(=O)[C@H](Cc1ccccc1)NC(=O)[C@H](CCC(=O)O)NC(=O)[C@H](C)N)C(=O)NCC(=O)N1CCC[C@H]1C(=O)N[C@H](CC(N)=O)C(=O)NCC(=O)N[C@@H](Cc1ccc(O)cc1)C(=O)N[C@H](C(=O)N[C@@H](Cc1ccc(O)cc1)C(=O)N[C@@H](CC(C)C)C(=O)N[C@@H](Cc1c[nH]cn1)C(=O)N[C@@H](CO)C(=O)N[C@@H](C)C(N)=O)C(C)C [Analog 89] (H-AEFFKLGP[dN]GYVYLHSA-NH2)	% Inhibition 5 uM	%	13

Kindly consider the entry below.
I have this compound here, CC(C)C[C@H](NC(=O)[C@H](CCCCN)NC(=O)[C@H](Cc1ccccc1)NC(=O)[C@H](Cc1ccccc1)NC(=O)[C@H](CCC(=O)O)NC(=O)[C@H](C)N)C(=O)NCC(=O)N1CCC[C@H]1C(=O)N[C@@H](CC(N)=O)C(=O)N[C@H](C)C(=O)N[C@@H](Cc1ccc(O)cc1)C(=O)N[C@H](C(=O)N[C@@H](Cc1ccc(O)cc1)C(=O)N[C@@H](CC(C)C)C(=O)N[C@@H](Cc1c[nH]cn1)C(=O)N[C@@H](CO)C(=O)N[C@@H](C)C(N)=O)C(C)C [Analog 81] (H-AEFFKLGPN[dA]YVYLHSA-NH2) , and I need its recorded % Inhibition 5 uM. 80

---

# ASSAYED_TARGET: soluble uPAR (Homo sapiens)
# MEASUREMENT_CONDITIONS: 5000.0
Square brackets hold non-standard residues; d marks the D form. Peptide text beside a SMILES is read from it.
VALUE_KIND: % Inhibition 5 uM (%)
Write the number in % without appending the unit.

// solved cases for % Inhibition 5 uM follow
COMPOUND	ASSAYED_TARGET	VALUE_KIND	RECORDED_MEASUREMENT
CC(C)C[C@H](NC(=O)[C@H](CCCCN)NC(=O)[C@H](Cc1ccccc1)NC(=O)[C@H](Cc1ccccc1)NC(=O)[C@H](CCC(=O)O)NC(=O)[C@H](C)N)C(=O)NCC(=O)N1CCC[C@H]1C(=O)N[C@@H](CC(N)=O)C(=O)N[C@H](CO)C(=O)N[C@@H](Cc1ccc(O)cc1)C(=O)N[C@H](C(=O)N[C@@H](Cc1ccc(O)cc1)C(=O)N[C@@H](CC(C)C)C(=O)N[C@@H](Cc1c[nH]cn1)C(=O)N[C@@H](CO)C(=O)N[C@@H](C)C(N)=O)C(C)C [Analog 80] (H-AEFFKLGPN[dS]YVYLHSA-NH2)	soluble uPAR (Homo sapiens)	% Inhibition 5 uM	95
CC(C)C[C@H](NC(=O)[C@H](CCCCN)NC(=O)[C@H](Cc1ccccc1)NC(=O)[C@H](Cc1ccccc1)NC(=O)[C@H](CCC(=O)O)NC(=O)[C@H](C)N)C(=O)NCC(=O)N1CCC[C@H]1C(=O)N[C@@H](CC(N)=O)C(=O)NCC(=O)N[C@@H](Cc1ccc(O)cc1)C(=O)N[C@H](C(=O)N[C@@H](Cc1ccc(O)cc1)C(=O)N[C@@H](CC(C)C)C(=O)N[C@@H](Cc1c[nH]cn1)C(=O)N[C@H](CO)C(=O)N[C@@H](C)C(N)=O)C(C)C [Analog 95] (H-AEFFKLGPNGYVYLH[dS]A-NH2)	soluble uPAR (Homo sapiens)	% Inhibition 5 uM	59
CC(C)C[C@H](NC(=O)[C@H](CCCCN)NC(=O)[C@H](Cc1ccccc1)NC(=O)[C@H](Cc1ccccc1)NC(=O)[C@H](CCC(=O)O)NC(=O)[C@H](C)N)C(=O)NCC(=O)N1CCC[C@H]1C(=O)N[C@@H](CC(N)=O)C(=O)NCC(=O)N[C@@H](Cc1ccc(O)cc1)C(=O)N[C@H](C(=O)N[C@@H](Cc1ccc(O)cc1)C(=O)N[C@@H](CC(C)C)C(=O)N[C@@H](Cc1c[nH]cn1)C(=O)N[C@@H](CO)C(=O)N[C@H](C)C(N)=O)C(C)C [Analog 96] (H-AEFFKLGPNGYVYLHS[dA]-NH2)	soluble uPAR (Homo sapiens)	% Inhibition 5 uM	40

Kindly consider the entry below.
I have this compound here, CC(C)C[C@H](NC(=O)[C@H](CCCCN)NC(=O)[C@H](Cc1ccccc1)NC(=O)[C@H](Cc1ccccc1)NC(=O)[C@@H](CCC(=O)O)NC(=O)[C@H](C)N)C(=O)NCC(=O)N1CCC[C@H]1C(=O)N[C@@H](CC(N)=O)C(=O)NCC(=O)N[C@@H](Cc1ccc(O)cc1)C(=O)N[C@H](C(=O)N[C@@H](Cc1ccc(O)cc1)C(=O)N[C@@H](CC(C)C)C(=O)N[C@@H](Cc1c[nH]cn1)C(=O)N[C@@H](CO)C(=O)N[C@@H](C)C(N)=O)C(C)C [Analog 83] (H-A[dE]FFKLGPNGYVYLHSA-NH2) , and I need its recorded % Inhibition 5 uM. 59

---

# ASSAYED_TARGET: soluble uPAR (Homo sapiens, UniProt Q03405)
# MEASUREMENT_CONDITIONS: 2500.0
Square brackets hold non-standard residues; d marks the D form. Peptide text beside a SMILES is read from it.
VALUE_KIND: % Inhibition 2.5 uM
Please state the value followed by its unit.

COMPOUND	% Inhibition 2.5 uM
CC(C)C[C@H](NC(=O)[C@H](CCCCN)NC(=O)[C@H](Cc1ccccc1)NC(=O)[C@H](Cc1ccccc1)NC(=O)[C@H](CCC(=O)O)NC(=O)[C@H](C)N)C(=O)NCC(=O)N1CCC[C@H]1C(=O)N[C@@H](CC(N)=O)C(=O)N[C@H](CO)C(=O)N[C@@H](Cc1ccc(O)cc1)C(=O)N[C@H](C(=O)N[C@@H](Cc1ccc(O)cc1)C(=O)N[C@@H](CC(C)C)C(=O)N[C@@H](Cc1c[nH]cn1)C(=O)N[C@@H](CO)C(=O)N[C@@H](C)C(N)=O)C(C)C [Analog 80] (H-AEFFKLGPN[dS]YVYLHSA-NH2)	89%

I have this compound here, CC(C)C[C@H](NC(=O)[C@H](CCCCN)NC(=O)[C@H](Cc1ccccc1)NC(=O)[C@H](Cc1ccccc1)NC(=O)[C@H](CCC(=O)O)NC(=O)[C@H](C)N)C(=O)NCC(=O)N1CCC[C@H]1C(=O)N[C@@H](CC(N)=O)C(=O)NCC(=O)N[C@@H](Cc1ccc(O)cc1)C(=O)N[C@H](C(=O)N[C@@H](Cc1ccc(O)cc1)C(=O)N[C@@H](CC(C)C)C(=O)N[C@@H](Cc1c[nH]cn1)C(=O)N[C@H](CO)C(=O)N[C@@H](C)C(N)=O)C(C)C [Analog 95] (H-AEFFKLGPNGYVYLH[dS]A-NH2) , and I need its recorded % Inhibition 2.5 uM. 47%
